// reported ICAM-1 (% ASFI of HA) per item
# System name: T1, ICAM-1-Fcγ (ICAM-1 residues of 1-480 fused to the Fc of human IgG, R&D Systems) (human, UniProt P05362 28-480)
# T1 construct: range 1-480; Bought (R&D Systems); also called ICAM-1-Fcγ chimera; not shown: Fc of human IgG
# T1 sequence (P05362 28-480 limits assumed, form in doubt): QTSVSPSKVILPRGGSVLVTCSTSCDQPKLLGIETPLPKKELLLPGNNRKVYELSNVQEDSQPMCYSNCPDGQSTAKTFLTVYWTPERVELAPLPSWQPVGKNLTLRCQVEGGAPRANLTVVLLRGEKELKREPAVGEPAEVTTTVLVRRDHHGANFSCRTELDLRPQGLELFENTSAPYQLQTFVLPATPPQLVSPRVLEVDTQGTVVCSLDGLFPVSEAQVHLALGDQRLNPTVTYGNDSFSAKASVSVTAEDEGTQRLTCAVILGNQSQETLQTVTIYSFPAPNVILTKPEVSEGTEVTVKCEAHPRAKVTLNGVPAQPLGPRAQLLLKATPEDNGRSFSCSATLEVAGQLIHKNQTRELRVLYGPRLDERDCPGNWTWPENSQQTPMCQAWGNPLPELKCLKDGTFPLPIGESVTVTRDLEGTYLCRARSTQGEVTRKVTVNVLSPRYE
# Measurement protocol: flow cytometry on yeast-displayed I domain, ICAM-1-Fcγ 10 µg/ml

Input line: Fill blank: measured ICAM-1 (% ASFI of HA) of the binder αL I domain clone m14 (I288N), yeast-displayed (receptor, yeast surface display; not shown: Aga2, linker and hemagglutinin tag of pCTCON; c-myc tag) NVDLVFLFDGSMSLQPDEFQKILDFMKDVMKKLSNTSYQFAAVQFSTSYKTEFDFSDYVKWKDPDALLKHVKHMLLLTNTFGAINYVATEVFREELGARPDATKVLIIITDGEATDSGNIDAAKDIIRYIIGIGKHFQTKESQETLHKFASKPASEFVKNLDTFEKLKDLFTELQKKIYVIEGTSKQDLT is ____.
Output line: 14 % ASFI of HA

Input line: Can you check αL I domain clone m8 (F292S, P281E), yeast-displayed (receptor, yeast surface display; not shown: Aga2, linker and hemagglutinin tag of pCTCON; c-myc tag) NVDLVFLFDGSMSLQPDEFQKILDFMKDVMKKLSNTSYQFAAVQFSTSYKTEFDFSDYVKWKDPDALLKHVKHMLLLTNTFGAINYVATEVFREELGARPDATKVLIIITDGEATDSGNIDAAKDIIRYIIGIGKHFQTKESQETLHKFASKEASEFVKILDTSEKLKDLFTELQKKIYVIEGTSKQDLT next?
Output line: 54 % ASFI of HA
